- ASSAY REMARKS: Visual cytotoxicity of HFF's in cells unaffected by virus
- Type: cell-based
- ASSAY CONTEXT: human, HFF cells (not affected by virus)
QUANTITY KIND: CC50

1. Nc1nc2c(ncn2/C=C2\CC23CCP(=O)(O)OC3)c(=O)[nH]1 (stereo not drawn) [Compound 15] | > 100 µM
2. Nc1nc2c(ncn2/C=C2\CC2(CO)CCP(=O)(O)O)c(=O)[nH]1 (stereo not drawn) [Compound 13] | > 100 µM
3. Nc1nc(O)c2ncn(COC(CO)CO)c2n1 [Ganciclovir, ganciclovir] | > 100 µM

----------
- Tested on: HFF cells
- ASSAY REMARKS: Cytotoxicity by neutral red uptake
- Format: cell-based
- ASSAY CONTEXT: read-out: CC50 HSV-1/HFF; neutral red uptake, HSV-1/HFF column
QUANTITY KIND: CC50

1) Nc1nc2c(ncn2/C=C2\CC23CCP(=O)(O)OC3)c(=O)[nH]1 (centres unmarked) | > 300 µM
2) Nc1nc2c(ncn2/C=C2/CC2(CO)CCP(=O)(O)O)c(=O)[nH]1 (centres unmarked) | > 300 µM

----------
- ASSAY REMARKS: Cytotoxicity in replicating KB cells
- Assay type: cell-based
- ASSAY CONTEXT: human
QUANTITY KIND: CC50

1. Nc1nc2c(ncn2/C=C2\CC2(CO)CCP(=O)(O)O)c(=O)[nH]1 (centres unmarked) [Compound 13] | > 100 µM
2. Nc1nc2c(ncn2/C=C2\CC23CCP(=O)(O)OC3)c(=O)[nH]1 (centres unmarked) [Compound 15] | > 100 µM

----------
- ASSAY REMARKS: Cytotoxicity by neutral red uptake
- Type: cell-based
- ASSAY CONTEXT: human, HFF cells
QUANTITY KIND: CC50

1. Nc1nc2c(ncn2/C=C2\CC23CCP(=O)(O)OC3)c(=O)[nH]1 (stereo not drawn) [Compound 15] | > 300 µM
2. Nc1nc2c(ncn2/C=C2/CC2(CO)CCP(=O)(O)O)c(=O)[nH]1 (stereo not drawn) [Compound 12] | > 300 µM
3. Nc1nc(O)c2ncn(COC(CO)CO)c2n1 [Ganciclovir, ganciclovir] | > 100 µM
